test system: 422866-222-R5-J1-PDC spheroid viability; experiment: Anticancer human tumor 422866-222-R5-J1-PDC patient-derived pancreatic adenocarcinoma cell line growth inhibition [CLK]; conditions: second compound 0.0316 µM; first compound 0.00949 µM; stronger effect = lower value; spheroids with HUVEC and MSC;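 also: spheroids exposed to agents for seven days before readout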
Catalogue of viability, T/C readings, one per entry.
assay_metric: viability, T/C (%)

1) NC(=O)C(=Cn1cnc(-c2cc(C(F)(F)F)cc(C(F)(F)F)c2)n1)c1cncnc1 + CNC(=O)c1ccc(Nc2nc(OC3CCCC3)c3c(-c4ccc5nc(C)oc5c4)c[nH]c3n2)c(OC)c1 | 98.7
2) CC(C)CC(NC(=O)C(Cc1ccccc1)NC(=O)c1cnccn1)B(O)O (stereo unspecified) + CN1CCN(c2cc(C(=O)Nc3cc4cc(-c5cnn(C)c5)ccc4cn3)ccn2)CC1 | 8.95
3) C=CC(=O)Nc1cc(Nc2nccc(-c3cn(C)c4ccccc34)n2)c(OC)cc1N(C)CCN(C)C + CN1CCN(c2cc(C(=O)Nc3cc4cc(-c5cnn(C)c5)ccc4cn3)ccn2)CC1 | 114
4) C=CC(=O)Nc1cc(Nc2nccc(-c3cn(C)c4ccccc34)n2)c(OC)cc1N(C)CCN(C)C + CNC(=O)c1ccc(Nc2nc(OC3CCCC3)c3c(-c4ccc5nc(C)oc5c4)c[nH]c3n2)c(OC)c1 | 85.4
5) CC(C)CC(NC(=O)C(Cc1ccccc1)NC(=O)c1cnccn1)B(O)O (stereo unspecified) + CNC(=O)c1ccc(Nc2nc(OC3CCCC3)c3c(-c4ccc5nc(C)oc5c4)c[nH]c3n2)c(OC)c1 | 18.5
6) NC(=O)C(=Cn1cnc(-c2cc(C(F)(F)F)cc(C(F)(F)F)c2)n1)c1cncnc1 + CN1CCN(c2cc(C(=O)Nc3cc4cc(-c5cnn(C)c5)ccc4cn3)ccn2)CC1 | 123
